Provenance of the data: PubChem BioAssay AID2740

Assay: TOR pathway RPL19A-GFP modulators, concentration series – cell-based, S. cerevisiae, flow cytometry, MLPCN hits, dose response (AID 2740);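 also: background is signal of the same compound in parental non-GFP s288c yeast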
Settings: S. cerevisiae RPL19A-GFP strain, flow cytometry fluorescence, 3 h; at 33 µM (top of the series)
measuredParameter: GFP fluorescence, lower = active (kMESF (background-subtracted))
Please reply with the value in numeric form only.

## Task Would you mind telling me what GFP fluorescence, lower = active (kMESF (background-subtracted)) value was observed for `O=[N+]([O-])c1cc(CN2CCN(c3cccc(C(F)(F)F)c3)CC2)c2cccnc2c1O` ?
## Result 22.7

## Task Moving on to `COc1ccc(N2CCN(C(=O)c3ccccc3)CC2)c([N+](=O)[O-])c1`
## Result 47.4

## Task Moving on to the next compound: `COc1ccc(C(=O)NNC(=S)NC(=O)/C=C/c2cccs2)cc1`
## Result 47.4

## Task How about this compound: `O=C(Nc1nnc(-c2ccc(F)cc2)o1)c1cccc([N+](=O)[O-])c1`
## Result 43.5

## Task Let us now turn to `CCCCCCCCCCCCCCCC[n+]1cccc2ccccc21`
## Result 1.36

---

Assay: TOR pathway RPL19A-GFP modulators, concentration series – cell-based, S. cerevisiae, flow cytometry, MLPCN hits, dose response (AID 2740);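 also: background is signal of the same compound in parental non-GFP s288c yeast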
Settings: S. cerevisiae RPL19A-GFP strain, flow cytometry fluorescence, 3 h; at 33 µM (top of the series)
Entries and their GFP fluorescence, lower = active (kMESF (background-subtracted))
Kindly provide the number alone.

## Task Fill in: GFP fluorescence, lower = active (kMESF (background-subtracted)) of `CCN1/C(=C/C=C/c2sc3ccccc3[n+]2CC)Sc2ccccc21` is ___
## Result 31.9

## Task Please answer likewise for Cc1ccc(C(c2cc(Cl)c3cccnc3c2O)N2CCN(C)CC2)cc1 (configuration not stated)
## Result 29.8

## Task And then `COc1ccc(C(=O)/C=C2/C(=O)Nc3ccccc32)cc1` , what is it?
## Result 38

# input for lookup
## Task Need GFP fluorescence, lower = active (kMESF (background-subtracted)), item `CCc1sc(C(=O)Nc2nc(-c3ccccn3)cs2)cc1C`
## Result 21.1

---

Assay: TOR pathway RPL19A-GFP modulators, concentration series – cell-based, S. cerevisiae, flow cytometry, MLPCN hits, dose response (AID 2740);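 also: background is signal of the same compound in parental non-GFP s288c yeast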
Settings: S. cerevisiae RPL19A-GFP strain, flow cytometry fluorescence, 3 h; at 33 µM (top of the series)
Examples of compounds with documented GFP fluorescence, lower = active (kMESF (background-subtracted)) follow.
Form: value (number only, do not type unit).

Take a look at these entries with their results.
## Task # query: GFP fluorescence, lower = active (kMESF (background-subtracted)) of entry O=C1c2ccccc2C(=O)C2OC12 (configuration not stated)
## Result 29.2

## Task Let us now turn to O=C(O)c1ccccc1SC1CC(=O)N(c2ccc3c(c2)OCO3)C1=O (configuration not stated)
## Result 43.5

## Task Same for `Cc1ccc2c(c1)c(/C=C/c1cc[n+](C)cc1)c(C)n2C`
## Result 40.7

## Task Same question for `CCc1ccc(OCC(=O)NNC(=S)NC(=O)C2CC2)c(Br)c1` please.
## Result 45.8

## Task Record: `COc1ccc(C2=CC(=O)N(Nc3ccccc3)C2=O)cc1`
## Result 34.6

Others:
## Task Quick one: GFP fluorescence, lower = active (kMESF (background-subtracted)) for `CC(=O)Oc1ccc(/C=c2\sc3ncnn3c2=O)cc1` ?
## Result 50
